- System: MS2 coat protein
- ASSAY METHOD TEXT: apparent KD of MS2 coat protein; designed switch direction (-1 OFF switch, 1 ON switch): -1; higher = weaker reporter binding
- ASSAY CONDITIONS: input ligand: none
Provide the recorded apparent KD of MS2 coat protein for the entries that follow.
One number for each entry, in nM.

# count of solved cases: 3
UUAAUAUAUCAGGAUAUGAUUAUAUGUGUUAAAUCAGAAGGGAUAACAUGAGGAUCACCCAUGUUGUGGAGUGA [JR_Ex6_Sub033] (Eterna round: R97, puzzle: Exclusion 6) : 92.8
AAAUAGCAAGUGUGAUCCUACAUGAGGAUCACCCAUGUGUUCGUCUUAUUUGAAGACAACACAAAAGUGUUGUCUUA [Omei Mir OFFv1 B2] (Eterna round: R97, puzzle: Sensor, turn-off variant 1) : 24.6
CAGUACUGAGGAUAUACAUGAGGAUCACCCAUGUGAGCGAUACUAGUGAGGUCGAUUAGUAGAAGGCAGUACUG [Mat X3R4 m33] (Eterna round: R97, puzzle: Exclusion 3) : 32

Answer for every listed entry: what is its apparent KD of MS2 coat protein? The entries follow.
1. CGGAGCGGCUUAGGAUAUGCUGGAAUAUCCCUGCUCCUCAGAACAUGAGGAUCACCCAUGUACUGGCAGAAGGGAGCUGCAGAG [Inxeedsoxe] (Eterna round: R96, puzzle: Exclusion NG 2)
2. GACAGGGCAGGAUAUCGAGAUCCGCACAUGAGGAUCACCCAUGUUCAGUCGAAAGACUGACGAGAAGGGCCGUGUC [Omei Ex5 E4] (Eterna round: R97, puzzle: Exclusion 5)
3. AUGGCGUUAGGAUAUACUAUGGGCCUGGACAGUGCACCUCCACAUGAGGAUCACCCAUGUAGAAGGAACUCGAG [Eternabot (L2) Solution 99] (Eterna round: R97, puzzle: Exclusion 2)

1: 18.7; 2: 1390; 3: 20.8

====

- Tested on: MS2 coat protein
- ASSAY METHOD TEXT: apparent KD of MS2 coat protein, switch ON state; designed switch direction (-1 OFF switch, 1 ON switch): 1; higher = weaker reporter binding
- ASSAY CONDITIONS: FMN input: 0 or 200 uM; Eterna round: R93 (includes R88 designs)
Provide the recorded apparent KD of MS2 coat protein for the entries that follow.
One number for each entry, in nM.

# count of solved cases: 10
CGAAAGGAGAGAGAGGAUAUCCAAAGGAAAACAUGAGGAUCACCCAUGUAGAAGGUAGGAGAUUGGGAGAAGGCUCAAGAGAGUA [salish99-ss2-149] : 25.7
GAGGACAUAGUACAGGAUAUAUGAAUAGUCACAUGAGGAUCACCCAUGUGCAUUUAUAUGCGCACAUAGAAGGGUGGUAGUUAUC [SameState2 Malc#28] : 155
AAAAAACAUGAGGAUCACCCAUGUAAAAAAACAUGAGGAUAUAUAAAAAAAAAAAAAAAGAUAGAAGGCAUAAAUA [JR_SS001_Sub1201] : 128
AAUGAACAUGAGGAUCACCCAUGUUCUAAUAGUUGAGGAUAUAUGGGUGAAAAUAGCACAGUAGAAGGCGAGUGUA [SameState1 Malc#17] : 408
AAAUAAAUGACUGAGGAUAUAUCGAUGAGUACAUGAGGAUCACCCAUGUGUUAAUAAAAAGGGUGGUAGAAGGUAGUCAACAAAC [Mod 15 of Pariah 4 by Hyphema in Round 1] : 112
AAAGAAAAACUAGAGGAUAUCUGAGUGGUAACAUGAGGAUCACCCAUGUGAAGAAAGGAGCAUGAGGAGAAGGCUAGAAGAAAAA [JL Nando mod 22] : 11.7
CGAAAGGAGAGAGAGGAUAUCCAAAGGAAAACAUGAGGAUCACCCAUGUAGAAGGUAGGAGAUUGGGAGAAGGCUCAAGAGAGAU [salish99-ss2-147] : 32.1
GAAAAACAUGAGGAUCACCCAUGUGAAAACUUGGGAGGAUAUACAAAGACGAAAGUCGAAGUAGAAGGCCUAUAAG [Same State 1.4l (Mat - Mod of Eli - )] : 21.1
AACAGACAUGAGGAUCACCCAUGUAGAAUUAUGGGAGGAUAUACAAAGACGAGAGUCAGAGUAGAAGGCCUAGGAA [salish99-ss1-165] : 22
AAAAACGUGGCGUAGGAUAUACUAAUAUUCACAUGAGGAUCACCCAUGUUCAUAUAUAUGAACGAGUAGAAGGACGACGAAAAAA [Mat - Same state - Malcolm Mod - D106] : 29.5

Answer for every listed entry: what is its apparent KD of MS2 coat protein? The entries follow.
1. GAAAUACAUGAGGAUCACCCAUGUUAGGUGGGUCAAGGAUAUUGAGAUAAAUAAAAAUCUCGAGAAGGUGAAUAAA [JR_SS001_Sub202]
2. AUAAAAUAAAGUCAGGAUAUCUAUAAUAAAACAUGAGGAUCACCCAUGUUAAAAAAAAGAUCAUGGGAGAAGGGACAAAAUAAAU [SS2 M 32]

1. 87.7
2. 27
